biological target: TrkA (human full length) (Homo sapiens); assay: PathHunter live whole cell functional assay, NGF stimulated TrkA activation; conditions: U2OS cell background, mean of triplicate; read-out: cellular IC50, inhibition of NGF stimulated TrkA activation
Sequence (P04629 33-796): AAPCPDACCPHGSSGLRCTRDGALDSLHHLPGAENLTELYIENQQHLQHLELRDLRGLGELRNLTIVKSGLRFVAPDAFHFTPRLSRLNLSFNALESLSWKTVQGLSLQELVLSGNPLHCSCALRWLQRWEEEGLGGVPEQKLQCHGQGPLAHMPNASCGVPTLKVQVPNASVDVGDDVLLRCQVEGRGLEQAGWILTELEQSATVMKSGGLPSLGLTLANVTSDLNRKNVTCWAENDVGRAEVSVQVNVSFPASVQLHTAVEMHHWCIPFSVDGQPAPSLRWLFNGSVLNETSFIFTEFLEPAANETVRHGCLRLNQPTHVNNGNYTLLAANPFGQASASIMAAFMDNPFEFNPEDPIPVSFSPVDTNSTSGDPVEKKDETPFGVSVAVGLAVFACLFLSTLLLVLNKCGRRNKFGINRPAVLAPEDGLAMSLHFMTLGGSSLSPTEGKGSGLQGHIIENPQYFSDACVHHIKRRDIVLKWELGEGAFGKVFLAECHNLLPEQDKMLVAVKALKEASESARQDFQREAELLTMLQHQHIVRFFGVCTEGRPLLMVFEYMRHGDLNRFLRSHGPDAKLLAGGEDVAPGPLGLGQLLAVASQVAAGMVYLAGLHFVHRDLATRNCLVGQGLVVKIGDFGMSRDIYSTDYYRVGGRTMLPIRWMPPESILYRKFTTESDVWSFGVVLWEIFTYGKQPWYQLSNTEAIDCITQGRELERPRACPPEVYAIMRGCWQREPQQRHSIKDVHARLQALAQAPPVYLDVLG
pIC50: −log10 of the molar value.

- cpd-smiles: "O=C([O-])c1ccc(Nc2cc(N3CCN(C4CCCCC4)CC3)c3noc4c3c2C(=O)c2ccccc2-4)cc1.[Na+]"
  pIC50: "~7.30"

* * *

biological target: TrkC (Homo sapiens, UniProt Q16288); test: PathHunter live whole cell functional assay, NT3 stimulated TrkC activation; settings: triplicate
Sequence (Q16288 32-839): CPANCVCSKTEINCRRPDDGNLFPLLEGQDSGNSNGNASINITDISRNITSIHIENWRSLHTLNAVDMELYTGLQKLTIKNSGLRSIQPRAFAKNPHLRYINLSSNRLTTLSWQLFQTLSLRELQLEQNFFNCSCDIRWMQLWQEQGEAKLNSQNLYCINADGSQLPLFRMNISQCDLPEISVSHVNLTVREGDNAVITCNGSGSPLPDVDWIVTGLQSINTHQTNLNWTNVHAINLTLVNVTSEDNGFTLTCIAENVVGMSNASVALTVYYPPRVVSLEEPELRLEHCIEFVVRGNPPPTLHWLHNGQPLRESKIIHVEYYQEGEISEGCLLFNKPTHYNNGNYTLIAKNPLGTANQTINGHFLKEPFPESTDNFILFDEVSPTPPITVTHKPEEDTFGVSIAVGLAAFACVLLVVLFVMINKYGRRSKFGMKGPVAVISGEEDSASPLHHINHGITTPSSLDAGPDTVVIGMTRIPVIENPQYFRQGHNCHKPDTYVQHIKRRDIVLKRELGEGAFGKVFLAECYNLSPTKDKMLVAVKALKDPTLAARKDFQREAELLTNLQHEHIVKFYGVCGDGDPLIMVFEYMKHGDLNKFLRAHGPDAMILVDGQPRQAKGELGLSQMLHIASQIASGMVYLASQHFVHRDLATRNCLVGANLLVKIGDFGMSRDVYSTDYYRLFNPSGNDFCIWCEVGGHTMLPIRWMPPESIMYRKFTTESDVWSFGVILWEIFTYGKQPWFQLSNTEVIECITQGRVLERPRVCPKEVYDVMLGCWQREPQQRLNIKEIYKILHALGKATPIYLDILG
assay-metric: IC50

- molecule: "O=C([O-])c1ccc(Nc2cc(N3CCN(C4CCCCC4)CC3)c3noc4c3c2C(=O)c2ccccc2-4)cc1.[Na+] [Compound I]"
  system-tested: "TrkC (Homo sapiens, UniProt Q16288)"
  val: "> 10 µM"

* * *

molecular target: TrkB (Homo sapiens); assay: PathHunter live whole cell functional assay, BDNF stimulated TrkB activation; conditions: triplicate
Sequence (Q16620 32-822): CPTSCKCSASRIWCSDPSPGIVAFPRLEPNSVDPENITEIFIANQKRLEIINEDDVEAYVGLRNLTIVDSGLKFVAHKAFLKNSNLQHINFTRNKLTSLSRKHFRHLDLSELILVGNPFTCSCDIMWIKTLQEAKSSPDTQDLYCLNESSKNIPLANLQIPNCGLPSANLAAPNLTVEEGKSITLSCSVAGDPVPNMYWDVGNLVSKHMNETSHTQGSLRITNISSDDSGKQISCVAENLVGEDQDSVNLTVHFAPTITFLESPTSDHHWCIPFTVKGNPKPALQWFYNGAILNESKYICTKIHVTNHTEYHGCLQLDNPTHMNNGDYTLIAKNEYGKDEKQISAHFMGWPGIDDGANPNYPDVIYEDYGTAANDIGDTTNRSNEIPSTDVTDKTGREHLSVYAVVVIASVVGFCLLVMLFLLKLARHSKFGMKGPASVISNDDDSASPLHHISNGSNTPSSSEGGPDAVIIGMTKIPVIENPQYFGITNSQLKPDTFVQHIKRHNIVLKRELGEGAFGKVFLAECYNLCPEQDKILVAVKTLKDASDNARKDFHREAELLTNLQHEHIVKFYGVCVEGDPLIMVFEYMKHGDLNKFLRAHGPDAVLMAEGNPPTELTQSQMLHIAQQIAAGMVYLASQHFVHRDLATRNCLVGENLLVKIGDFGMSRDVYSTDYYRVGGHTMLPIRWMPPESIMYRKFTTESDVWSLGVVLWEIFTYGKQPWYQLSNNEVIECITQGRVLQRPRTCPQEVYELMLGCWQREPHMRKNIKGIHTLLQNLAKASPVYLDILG
assay-metric: IC50

- cpd-smiles: "O=C([O-])c1ccc(Nc2cc(N3CCN(C4CCCCC4)CC3)c3noc4c3c2C(=O)c2ccccc2-4)cc1.[Na+]"
  val: "> 10 µM"
